Each item that follows carries a reported MAX(MFI).
Target: T1, human ROR1 on cells (HEK293T-hROR1, PANC-1, A549) (human, UniProt Q01973 30-937)
T1 construct: whole, on cells; one molecule for the three cell lines; also called huROR1; cell surface ROR1
T1 sequence (Q01973 30-937): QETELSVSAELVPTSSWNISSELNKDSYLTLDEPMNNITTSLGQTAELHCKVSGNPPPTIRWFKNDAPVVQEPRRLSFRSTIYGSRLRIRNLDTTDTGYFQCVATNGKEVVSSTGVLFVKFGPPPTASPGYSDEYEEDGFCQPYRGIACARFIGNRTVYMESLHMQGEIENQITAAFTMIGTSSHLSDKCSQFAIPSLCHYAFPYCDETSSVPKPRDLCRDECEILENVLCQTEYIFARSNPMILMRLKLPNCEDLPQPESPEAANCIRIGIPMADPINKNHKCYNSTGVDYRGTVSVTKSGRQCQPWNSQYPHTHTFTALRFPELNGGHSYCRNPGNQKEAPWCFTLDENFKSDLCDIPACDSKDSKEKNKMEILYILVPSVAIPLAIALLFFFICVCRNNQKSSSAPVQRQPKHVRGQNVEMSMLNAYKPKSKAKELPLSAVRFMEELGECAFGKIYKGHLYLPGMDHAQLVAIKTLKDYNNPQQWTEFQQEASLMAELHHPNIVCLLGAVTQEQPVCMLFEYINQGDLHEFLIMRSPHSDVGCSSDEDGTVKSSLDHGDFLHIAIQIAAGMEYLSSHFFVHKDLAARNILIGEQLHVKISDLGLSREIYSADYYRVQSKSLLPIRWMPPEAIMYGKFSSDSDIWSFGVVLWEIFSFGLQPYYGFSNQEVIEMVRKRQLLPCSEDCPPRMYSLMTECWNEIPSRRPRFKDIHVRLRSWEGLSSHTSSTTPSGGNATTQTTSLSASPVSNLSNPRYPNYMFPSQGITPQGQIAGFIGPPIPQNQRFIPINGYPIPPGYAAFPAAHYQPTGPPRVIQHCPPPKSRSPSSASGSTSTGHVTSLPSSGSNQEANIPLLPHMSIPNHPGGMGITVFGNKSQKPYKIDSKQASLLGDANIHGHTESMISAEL
Test: flow cytometry, PANC-1 cells
Method: In brief, anti-ROR1 antibodies were serially diluted in staining buffer (PBS containing 2% FBS). Antibody solution was incubated with 1×10⁵ cells at 4° C. for 1 hour. […] After 1-hour incubation at 4° C., cells were washed twice with staining buffer and subjected to flow cytometry. PR000374 (Bench marker 1) and non-relevant IgG isotype control (Crownbio) were used as positive and negative controls, respectively.
Answer format: numeric, MFI implied, no suffix.

# count of solved cases: 2
binder	MAX(MFI)
PR303145 (antibody, human IgG1, V domains shown, HCAb (heavy chain-only, human IgG1 Fc), no light chain) VH: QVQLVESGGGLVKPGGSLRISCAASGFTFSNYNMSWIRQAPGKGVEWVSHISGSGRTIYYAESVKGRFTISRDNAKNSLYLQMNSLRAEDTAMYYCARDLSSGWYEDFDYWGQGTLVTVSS	653000
PR303201 (antibody, human IgG1, V domains shown, HCAb (heavy chain-only, human IgG1 Fc), no light chain) VH: EVQLLESGGGLVQPGGSLRLSCAASGFTFSGNAMSWVRQAPGKGLEWVSAISGSGDKTYYAASVKGRFTISRDNSNNTVYLQMNSLRAEDTAVYYCEKGAFRTTMDYWGQGTLVTVSS	935000

Query: // query MAX(MFI) value for entry PR000374 (antibody, human IgG1, kappa, V domains shown, positive control; also called Bench marker 1) VH: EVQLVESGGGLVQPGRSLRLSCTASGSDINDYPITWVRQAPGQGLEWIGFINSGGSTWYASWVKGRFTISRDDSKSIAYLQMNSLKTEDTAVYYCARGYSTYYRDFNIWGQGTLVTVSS VL: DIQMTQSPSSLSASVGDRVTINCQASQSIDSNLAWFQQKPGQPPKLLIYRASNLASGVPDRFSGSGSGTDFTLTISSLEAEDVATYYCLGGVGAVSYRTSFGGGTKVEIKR
Reply: 442000

Origin of values: patent US20250257130A1
